Just for reference, ChEMBL document CHEMBL2169854 is where these values come from.

system: Oocyte; assay: Modulation of human recombinant GABA-A alpha5beta2gamma2L receptor expressed in Xenopus laevis oocytes assessed as effect on GABA-induced chloride current at 1 uM incubated 60 seconds before addition of GABA measured after 30 seconds at holding potential -70 mV by two-microelectrode voltage clamp technique relative to control; assay type: cell-based
Entries and their Activity values follow.
ASSAY_ENDPOINT: Activity (%)

>  <CHEMICAL_STRING>
CCOC(=O)c1ncn2c1CN=C(c1ccc(Cl)cc1)c1ccccc1-2

>  <MEASUREMENT_UNIT>
%

>  <RESULT_NUMBER>
-0.5

$$$$
>  <CHEMICAL_STRING>
CCOC(=O)c1ncn2c1CN=C(c1cccc([N+](=O)[O-])c1)c1cc(F)ccc1-2

>  <MEASUREMENT_UNIT>
%

>  <RESULT_NUMBER>
27

$$$$
>  <CHEMICAL_STRING>
CCOC(=O)c1ncn2c1CN=C(c1ccc(F)cc1)c1cc(F)ccc1-2

>  <MEASUREMENT_UNIT>
%

>  <RESULT_NUMBER>
-1

$$$$
>  <CHEMICAL_STRING>
CCOC(=O)c1ncn2c1CN=C(c1ccc(C)cc1)c1ccccc1-2

>  <MEASUREMENT_UNIT>
%

>  <RESULT_NUMBER>
-4

$$$$
